target entity: T1, RBD derived from SARS-CoV-2 (Wuhan strain) (SARS-CoV-2 (Wuhan strain), UniProt P0DTC2 319-541)
T1 construct: domain: RBD
experimental details: BLI (Octet), RBD of the Wuhan strain
assay metric: pKd
Please express pKd as -log10 of the molar concentration.

[ask] Consider the binder shown here: Ab159 (antibody, V domains shown) VH: QVQLVESGGGLVKPGGSLRLSCAASGFTFNNAWMSWVRQAPGKGLEWVGRIKSKTDGGTTDYAAPVKGRFTFSRDDSKNTLYLQMSSLKTEDTALYYCTTADYDILTGTPASPYWGQGTLVTVSS VL: DIQMTQSPSSLSASVGDRVTITCRASQSITNYLNWYQQKPGKAPKFLIYAASSLQGGVPSRFRGSGSGTDFTLTISSLQPEDFATYYCQQTYSTLWTFGQGTKVEIK What is its recorded pKd?
[reply] 8.91

[ask] Consider the binder shown here: Ab376 (antibody, V domains shown) VH: EVQLVESGGGLVQPGGSLRLSCEASEFTLNSHYMNWVRQAPGKGLEWVSVIYSSGSTYYADSVKGRFTISRHNSKDTLYLQMNSLKPEDTAVYYCARPNYGGNSIWYFDLWGRGTLVTVSS VL: DIQMTQSPSSVSASVGDRVTITCRASQGIGSWLAWYQQTPGKAPKLLIYAASSLQSGVPSRFSGSGSGTDFTLTISSLQPEDFATYYCQQANSFPLTFGGGTKVEIK What is its recorded pKd?
[reply] 9.96
